Source listed as ChEMBL document CHEMBL4257450.

# assay_explanation: Growth inhibition of human PC3 cells at 50 uM by MTT assay relative to control
# Assay type: cell-based, PC-3
# reported_conditions: read-out: GI
inhibition at 50 µM listing for selected compounds.

Take a look at these entries with their results.
compound	reported_metric	result
CC1(C)CCC(=O)C(=CNc2ccccc2O)C1=O (mixture of isomers)	inhibition at 50 µM	41.2%
O=C1CC(c2ccc(Cl)cc2)CC(=O)C1=CNc1ccccc1O (configuration not stated)	inhibition at 50 µM	18.6%
CC1(C)CC(=O)C(=CNc2ccccc2O)C(=O)C1	inhibition at 50 µM	10.1%
CC1CC(=O)C(=CNc2ccccc2O)C(=O)C1 (configuration not stated)	inhibition at 50 µM	8.2%
O=C1CC(c2ccccc2)CC(=O)C1=CNc1ccccc1O (configuration not stated)	inhibition at 50 µM	20.4%

[in] What measured inhibition at 50 µM goes with O=C1CC(c2ccco2)CC(=O)C1=CNc1ccccc1O (configuration not stated) ?
[out] 26.1%

[in] Note, next up: O=C1CCCC(=O)C1=CNc1ccccc1O
[out] 29.5%

----------
inhibition at 50 µM listing for selected compounds.
# assay_explanation: Growth inhibition of HEK293 cells at 50 uM by MTT assay relative to control
# Assay type: cell-based
# reported_conditions: human, read-out: GI
Give your result as the value with the unit written after it.

compound	inhibition at 50 µM
CC1(C)CCC(=O)C(=CNc2ccccc2O)C1=O (mixture of isomers)	64.1%
O=C1CC(c2ccccc2)CC(=O)C1=CNc1ccccc1O (configuration not stated)	52.8%
O=C1CC(c2ccco2)CC(=O)C1=CNc1ccccc1O (configuration not stated)	46.4%
CC1(C)CC(=O)C(=CNc2ccccc2O)C(=O)C1	9.03%
O=C1CC(c2ccc(Cl)cc2)CC(=O)C1=CNc1ccccc1O (configuration not stated)	44%
O=C1CCCC(=O)C1=CNc1ccccc1O	28.3%

Pending compound:
[in] What measured inhibition at 50 µM goes with CC1CC(=O)C(=CNc2ccccc2O)C(=O)C1 (configuration not stated) ?
[out] 6.08%

----------
# assay_explanation: Growth inhibition of human MCF7 cells at 50 uM by MTT assay relative to control
# Type: cell-based
# reported_conditions: read-out: GI
# if value of inhibition at 50 µM reaches 20%, tag Yes; if it stays below, tag No

The following compounds have reported results that may help.
compound	category_label
O=C1CC(c2ccco2)CC(=O)C1=CNc1ccccc1O (stereo unspecified)	No
O=C1CC(c2ccccc2)CC(=O)C1=CNc1ccccc1O (stereo unspecified)	No
CC1CC(=O)C(=CNc2ccccc2O)C(=O)C1 (stereo unspecified)	No
O=C1CCCC(=O)C1=CNc1ccccc1O	No
CC1(C)CC(=O)C(=CNc2ccccc2O)C(=O)C1	No

[in] Is inhibition at 50 µM at least 20%? Consider O=C1CC(c2ccc(Cl)cc2)CC(=O)C1=CNc1ccccc1O (stereo unspecified)
[out] Yes

----------
# assay_explanation: Growth inhibition of human HCT116 cells at 50 uM by MTT assay relative to control
# Type: cell-based, HCT-116
# reported_conditions: read-out: GI
# if value of inhibition at 50 µM reaches 30%, tag yes (1); if it stays below, tag no (0)

The following molecules have reported results that may help.
molecule	category_label
O=C1CC(c2ccc(Cl)cc2)CC(=O)C1=CNc1ccccc1O (stereo unspecified)	no (0)
CC1(C)CC(=O)C(=CNc2ccccc2O)C(=O)C1	no (0)
O=C1CCCC(=O)C1=CNc1ccccc1O	no (0)
CC1CC(=O)C(=CNc2ccccc2O)C(=O)C1 (stereo unspecified)	yes (1)

[in] Is inhibition at 50 µM at least 30%? Consider CC1(C)CCC(=O)C(=CNc2ccccc2O)C1=O (mixture of isomers)
[out] yes (1)

[in] Note, next up: O=C1CC(c2ccco2)CC(=O)C1=CNc1ccccc1O (stereo unspecified)
[out] yes (1)
